pIC50: −log10 of the molar value.
ASSAY METRIC: pIC50

**Q:** Lab note: need pIC50 with AKT1 (Homo sapiens, UniProt P31749) for entry CCCN1C(=O)COc2nc(-c3ccc(C4(N)CCC4)cc3)c(-c3ccccc3)cc21 , please look it up.
Sequence (P31749 whole entry): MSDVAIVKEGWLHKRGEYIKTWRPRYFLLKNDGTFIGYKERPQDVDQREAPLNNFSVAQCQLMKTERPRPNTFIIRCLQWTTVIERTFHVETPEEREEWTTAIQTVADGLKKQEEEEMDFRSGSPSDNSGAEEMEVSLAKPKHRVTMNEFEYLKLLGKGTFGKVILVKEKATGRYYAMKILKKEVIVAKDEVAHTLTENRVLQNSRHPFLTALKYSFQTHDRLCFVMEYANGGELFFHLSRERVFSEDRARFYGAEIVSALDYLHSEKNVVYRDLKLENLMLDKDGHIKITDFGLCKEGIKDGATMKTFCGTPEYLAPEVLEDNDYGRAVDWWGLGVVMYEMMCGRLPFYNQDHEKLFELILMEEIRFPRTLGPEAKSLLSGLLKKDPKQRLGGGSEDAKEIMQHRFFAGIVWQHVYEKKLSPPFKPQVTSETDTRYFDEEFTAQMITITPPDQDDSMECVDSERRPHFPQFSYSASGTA
**A:** ≥ 7.00

**Q:** Lab note: need pIC50 with AKT1 (Homo sapiens, UniProt P31749) for entry C[C@]1(O)C[C@@](N)(c2ccc(-c3nc4c(cc3-c3ccccc3)N(CC#N)C(=O)CO4)cc2)C1 , please look it up.
**A:** ≥ 7.00

**Q:** Lab note: need pIC50 with AKT1 (Homo sapiens, UniProt P31749) for entry NC(=O)c1nnc2n1-c1cc(-c3ccccc3)c(-c3ccc(C4(N)CCC4)cc3)nc1OC2 , please look it up.
**A:** 6.00 to 7.00

**Q:** Lab note: need pIC50 with AKT1 (Homo sapiens, UniProt P31749) for entry NC1(c2ccc(-c3nc4c(cc3-c3ccccc3)-n3c(nnc3C(F)F)CO4)cc2)CCC1 , please look it up.
**A:** ≥ 7.00

**Q:** Lab note: need pIC50 with AKT1 (Homo sapiens, UniProt P31749) for entry NCc1ccc(-c2nc3c(cc2-c2ccccc2)N(CC(F)(F)F)C(=O)CO3)cc1 , please look it up.
**A:** 5.00 to 6.00

**Q:** Lab note: need pIC50 with AKT1 (Homo sapiens, UniProt P31749) for entry CCNC(=O)N1CCOc2nc(-c3ccc(C4(N)CCC4)cc3)c(-c3ccccc3)cc21 , please look it up.
**A:** < 5.00

**Q:** Lab note: need pIC50 with AKT1 (Homo sapiens, UniProt P31749) for entry NC(=O)CN1CCOc2nc(-c3ccc(C4(N)CCC4)cc3)c(-c3ccccc3)cc21 , please look it up.
**A:** 5.00 to 6.00

**Q:** Lab note: need pIC50 with AKT1 (Homo sapiens, UniProt P31749) for entry NC1(c2ccc(-c3nc4c(cc3-c3ccccc3)-n3c(nnc3CC(F)(F)F)CO4)cc2)CCC1 , please look it up.
**A:** 6.00 to 7.00

* * *

Exercise: for every item that follows, state its recorded IC50.

**Q:** Lab note: need IC50 with AKT1 (Homo sapiens, UniProt P31749) for entry CC1(C)CC(=O)c2cc(-c3ccccc3)c(-c3ccc(C4(N)CCC4)cc3)nc2C1 [Example 18] , please look it up.
**A:** 1 to 10 µM

**Q:** Lab note: need IC50 with AKT1 (Homo sapiens, UniProt P31749) for entry NC1(c2ccc(-c3nc4c(cc3-c3ccccc3)-n3c(nnc3-c3cccnc3)CO4)cc2)CCC1 [Example 122] , please look it up.
**A:** 0.1 to 1 µM

**Q:** Lab note: need IC50 with AKT1 (Homo sapiens, UniProt P31749) for entry N#CCN1C(=O)C(CCO)Oc2nc(-c3ccc(C4(N)CCC4)cc3)c(-c3ccccc3)cc21 (stereo not shown) [Example 78] , please look it up.
**A:** 0.1 to 1 µM

**Q:** Lab note: need IC50 with AKT1 (Homo sapiens, UniProt P31749) for entry C[C@]1(O)C[C@@](N)(c2ccc(-c3nc4c(cc3-c3ccccc3)N(CC3CC3)C(=O)CO4)cc2)C1 [Example 144] , please look it up.
**A:** 0.1 to 1 µM

* * *

Exercise: for every item that follows, state its recorded IC50.

**Q:** Lab note: need IC50 with AKT2 (Homo sapiens) for entry CS(=O)(=O)c1[nH]nc2c1CCc1nc(-c3ccc(C4(N)CCC4)cc3)c(-c3ccccc3)cc1-2 , please look it up.
Sequence (P31751 whole entry): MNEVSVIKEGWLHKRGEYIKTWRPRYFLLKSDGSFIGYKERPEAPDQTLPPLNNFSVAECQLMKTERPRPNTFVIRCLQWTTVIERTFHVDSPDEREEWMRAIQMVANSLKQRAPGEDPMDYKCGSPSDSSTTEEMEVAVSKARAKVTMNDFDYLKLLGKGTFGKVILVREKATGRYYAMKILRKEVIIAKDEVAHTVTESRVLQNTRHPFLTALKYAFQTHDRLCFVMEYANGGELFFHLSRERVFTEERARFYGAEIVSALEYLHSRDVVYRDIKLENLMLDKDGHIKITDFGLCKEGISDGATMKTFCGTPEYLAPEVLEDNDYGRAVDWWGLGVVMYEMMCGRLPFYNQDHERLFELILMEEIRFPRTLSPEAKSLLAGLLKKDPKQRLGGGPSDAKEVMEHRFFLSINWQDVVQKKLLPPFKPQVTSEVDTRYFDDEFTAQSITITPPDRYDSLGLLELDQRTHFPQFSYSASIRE
**A:** 1 to 10 µM

**Q:** Lab note: need IC50 with AKT2 (Homo sapiens) for entry Nc1nnc2n1-c1cc(-c3ccccc3)c(-c3ccc(C4(N)CCC4)cc3)nc1OC2 , please look it up.
**A:** 0.1 to 1 µM

**Q:** Lab note: need IC50 with AKT2 (Homo sapiens) for entry CCN1C(=O)COc2nc(-c3ccc(CN)cc3)c(-c3ccccc3)cc21 , please look it up.
**A:** 0.1 to 1 µM

**Q:** Lab note: need IC50 with AKT2 (Homo sapiens) for entry CC12CCc3nc(-c4ccc(C5(N)CCC5)cc4)c(-c4ccccc4)cc3C1=NNC2=O (centres unmarked) , please look it up.
**A:** 0.1 to 1 µM

**Q:** Lab note: need IC50 with AKT2 (Homo sapiens) for entry N#CCN1C(=O)COc2nc(-c3ccc(CN)cc3)c(-c3ccccc3)cc21 , please look it up.
**A:** ≤ 0.1 µM

**Q:** Lab note: need IC50 with AKT2 (Homo sapiens) for entry C#CCN1C(=O)COc2nc(-c3ccc(C4(N)CCC4)cc3)c(-c3ccccc3)cc21 , please look it up.
**A:** 0.1 to 1 µM

**Q:** Lab note: need IC50 with AKT2 (Homo sapiens) for entry NC1(c2ccc(-c3nc4c(cc3-c3ccccc3)N(C3CCOCC3)C(=O)CO4)cc2)CCC1 , please look it up.
**A:** 1 to 10 µM

**Q:** Lab note: need IC50 with AKT2 (Homo sapiens) for entry CC1(C)Cc2nc(-c3ccc(C4(N)CCC4)cc3)c(-c3ccccc3)cc2-c2n[nH]cc21 , please look it up.
**A:** 0.1 to 1 µM

* * *

Exercise: for every item that follows, state its recorded IC50.
molecular target: UniProt:P31749

**Q:** Reported IC50 for CN1CCc2nc(-c3ccc(C4(N)CCC4)cc3)c(-c3ccccc3)cc2C1=O : what is it?
**A:** 0.1 to 1 µM

**Q:** Reported IC50 for NC1(c2ccc(-c3nc4c(cc3-c3ccccc3)-c3ncncc3CC4)cc2)CCC1 : what is it?
**A:** ≤ 0.1 µM

**Q:** Reported IC50 for N[C@]1(c2ccc(-c3nc4c(cc3-c3ccccc3)-n3c(n[nH]c3=O)CO4)cc2)C[C@H](O)C1 : what is it?
**A:** 0.1 to 1 µM

**Q:** Reported IC50 for NC1(c2ccc(-c3nc4c(cc3-c3ccccc3)-c3n[nH]c(=O)n3CC4)cc2)CCC1 : what is it?
**A:** ≤ 0.1 µM

**Q:** Reported IC50 for Cn1cc(N2C(=O)COc3nc(-c4ccc(C5(N)CCC5)cc4)c(-c4ccccc4)cc32)cn1 : what is it?
**A:** 1 to 10 µM

**Q:** Reported IC50 for CN(C)CCN1C(=O)COc2nc(-c3ccc(C4(N)CCC4)cc3)c(-c3ccccc3)cc21 : what is it?
**A:** 1 to 10 µM

**Q:** Reported IC50 for Nc1nnc2n1-c1cc(-c3ccccc3)c(-c3ccc(C4(N)CCC4)cc3)nc1OC2 : what is it?
**A:** ≤ 0.1 µM

**Q:** Reported IC50 for COCC1Oc2nc(-c3ccc(C4(N)CCC4)cc3)c(-c3ccccc3)cc2N(C)C1=O (stereo not shown) : what is it?
**A:** 0.1 to 1 µM

**Q:** Reported IC50 for CC(C)N1C(=O)COc2nc(-c3ccc(C4(N)CCC4)cc3)c(-c3ccccc3)cc21 : what is it?
**A:** 1 to 10 µM

**Q:** Reported IC50 for CSc1[nH]nc2c1CCc1nc(-c3ccc(C4(N)CCC4)cc3)c(-c3ccccc3)cc1-2 : what is it?
**A:** 0.1 to 1 µM

**Q:** Reported IC50 for N#CCN1C(=O)COc2nc(-c3ccc(C4(N)CCC4)cc3)c(-c3ccccc3)cc21 : what is it?
**A:** ≤ 0.1 µM

**Q:** Reported IC50 for Cc1nc2c(n1O)CCc1nc(-c3ccc(C4(N)CCC4)cc3)c(-c3ccccc3)cc1-2 : what is it?
**A:** 0.1 to 1 µM

**Q:** Reported IC50 for CN1C(=O)COc2nc(-c3ccc(C4(N)CCC4)cc3)c(-c3cccnc3)cc21 : what is it?
**A:** 1 to 10 µM

**Q:** Reported IC50 for CS(=O)(=O)N1CCOc2nc(-c3ccc(C4(N)CCC4)cc3)c(-c3ccccc3)cc21 : what is it?
**A:** 0.1 to 1 µM

**Q:** Reported IC50 for CC(=O)N1CCOc2nc(-c3ccc(C4(N)CCC4)cc3)c(-c3ccccc3)cc21 : what is it?
**A:** 1 to 10 µM

**Q:** Reported IC50 for NC1(c2ccc(-c3nc4c(cc3-c3ccccc3)/C(=N/O)CCC4)cc2)CCC1 : what is it?
**A:** 0.1 to 1 µM

**Q:** Reported IC50 for NC1(c2ccc(-c3nc4c(cc3-c3ccccc3)-n3c(n[nH]c3=O)CO4)cc2)CCC1 : what is it?
**A:** 0.1 to 1 µM

**Q:** Reported IC50 for N#CCCCN1C(=O)COc2nc(-c3ccc(C4(N)CCC4)cc3)c(-c3ccccc3)cc21 : what is it?
**A:** 0.1 to 1 µM

**Q:** Reported IC50 for CCc1nnc2n1-c1cc(-c3ccccc3)c(-c3ccc([C@]4(N)C[C@](C)(O)C4)cc3)nc1OC2 : what is it?
**A:** ≤ 0.1 µM

**Q:** Reported IC50 for CCc1nnc2n1-c1cc(-c3ccccc3)c(-c3ccc(CN)cc3)nc1OC2 : what is it?
**A:** 1 to 10 µM

**Q:** Reported IC50 for NC1(c2ccc(-c3nc4c(cc3-c3ccccc3)N(c3cccnc3)S(=O)(=O)CO4)cc2)CCC1 : what is it?
**A:** 1 to 10 µM

**Q:** Reported IC50 for CN1C(=O)C(CCO)Oc2nc(-c3ccc(C4(N)CCC4)cc3)c(-c3ccccc3)cc21 (stereo not shown) : what is it?
**A:** 0.1 to 1 µM

**Q:** Reported IC50 for CN1C(=O)COc2nc(-c3ccc(C4(N)CCC4)cc3)c(CC3CC3)cc21 : what is it?
**A:** 1 to 10 µM

**Q:** Reported IC50 for NC1(c2ccc(-c3nc4c(cc3-c3ccccc3)-n3c(nnc3-c3ccccn3)CO4)cc2)CCC1 : what is it?
**A:** 0.1 to 1 µM

**Q:** Reported IC50 for C[C@]1(O)C[C@@](N)(c2ccc(-c3nc4c(cc3-c3ccccc3)-n3c(nnc3C(F)F)CO4)cc2)C1 : what is it?
**A:** ≤ 0.1 µM

**Q:** Reported IC50 for NC1(c2ccc(-c3nc4c(cc3-c3ccccc3)-n3c(nnc3-c3ccccc3)CO4)cc2)CCC1 : what is it?
**A:** 0.1 to 1 µM

**Q:** Reported IC50 for N#CCn1nc2n(c1=O)-c1cc(-c3ccccc3)c(-c3ccc(C4(N)CCC4)cc3)nc1OC2 : what is it?
**A:** 0.1 to 1 µM

**Q:** Reported IC50 for CCN1C(=O)COc2nc(-c3ccc(CN)cc3)c(-c3ccccc3)cc21 : what is it?
**A:** 1 to 10 µM

The origin of these recorded values is patent US9221838B2.
